Numbers sourced from ChEMBL document CHEMBL5375949.

# target system: Indoleamine 2,3-dioxygenase 1 (Homo sapiens)
# Sequence (P14902 whole entry): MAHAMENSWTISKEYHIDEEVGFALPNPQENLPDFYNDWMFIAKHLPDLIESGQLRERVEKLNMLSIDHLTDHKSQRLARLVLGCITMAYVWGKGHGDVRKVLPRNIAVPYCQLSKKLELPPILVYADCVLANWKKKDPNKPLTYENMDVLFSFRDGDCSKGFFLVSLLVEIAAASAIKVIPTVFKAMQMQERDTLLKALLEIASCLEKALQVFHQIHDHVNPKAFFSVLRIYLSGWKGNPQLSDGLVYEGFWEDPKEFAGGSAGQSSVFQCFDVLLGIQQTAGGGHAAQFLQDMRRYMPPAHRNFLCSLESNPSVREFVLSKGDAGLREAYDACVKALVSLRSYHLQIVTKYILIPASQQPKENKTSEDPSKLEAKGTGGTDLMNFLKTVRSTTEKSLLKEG
# test description: Positive allosteric modulation of recombinant human IDOL transfected in mouse P1.HTR cells assessed as increase in Kyn production incubated for 24 hrs
measured metric: pEC50
Give only the number. pEC50 is defined as minus log10 of concentration in molar units.

Value of pEC50 reported for the molecule CC(=O)NCCc1c[nH]c2ccc(O)cc12 is 4.68

* * *

# Test system: BT-474
# test description: Cytotoxicity against human BT-474 cells assessed as inhibition of cell growth incubated for 24 hrs by MTS assay
# Format: functional, cell-based
# assay context: BT-474, 24 h
measured metric: pIC50
Hey, just a heads up that pIC50 is the negative log base 10 of the concentration in molar.

The compound listed as CCCCCCCCc1ccc(CCC(N)(CO)CO)cc1 [FINGOLIMOD] shows pIC50 equal to 5.07
